Biological target: Aurora B (Homo sapiens, UniProt Q96GD4)
Construct: purchased Invitrogen PV3970
Sequence (Q96GD4 whole entry): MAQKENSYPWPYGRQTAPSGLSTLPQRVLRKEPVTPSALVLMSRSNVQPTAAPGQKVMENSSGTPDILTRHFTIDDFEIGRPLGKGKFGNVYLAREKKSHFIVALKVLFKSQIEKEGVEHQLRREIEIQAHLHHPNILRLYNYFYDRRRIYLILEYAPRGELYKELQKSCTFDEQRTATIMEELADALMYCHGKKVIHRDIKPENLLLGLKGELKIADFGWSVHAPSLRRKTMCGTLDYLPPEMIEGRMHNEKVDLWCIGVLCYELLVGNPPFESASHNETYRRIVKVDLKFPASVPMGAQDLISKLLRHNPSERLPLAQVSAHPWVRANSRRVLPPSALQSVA
Assay: Aurora B inhibition assay (Z-Lyte)
Assay type: biochemical
Conditions: 28 nM Aurora B, 128 μM ATP; read-out: IC50 Ranges Aurora B
Measured IC50, listed per entry for reference.

COMPOUND | VALUE MEASURED
CN1[C@@H]2CC[C@H]1C[C@@H](Oc1ccc(-c3n[nH]c4ccc(C(=O)NC(c5ccccc5)C5CC5)cc34)cc1)C2 (stereo partly drawn) | ≤ 5 µM
COCCN1CCC(Oc2ccc(-c3n[nH]c4ccc(C(=O)NC(c5ccsc5)C5CCCC5)cc34)cc2)CC1 (stereo not drawn) | ≤ 5 µM

# assay system Aurora B (Homo sapiens, UniProt Q96GD4): give IC50 of CN(c1ccc(-c2n[nH]c3ccc(NC(=O)C(c4ccsc4)N4CCCC4)cc23)cc1)C1CCOCC1 (stereo not drawn)
≤ 5 µM

# assay system Aurora B (Homo sapiens, UniProt Q96GD4): give IC50 of CN1CCC(Oc2ccc(-c3n[nH]c4ccc(C(=O)N[C@H](CCO)c5ccccc5)cc34)cc2Cl)CC1
≤ 5 µM

# assay system Aurora B (Homo sapiens, UniProt Q96GD4): give IC50 of O=C(Nc1ccc2[nH]nc(-c3ccc(NC4CCC(O)CC4)cc3)c2c1)C(c1ccsc1)N1CCCC1 (stereo not drawn)
≤ 5 µM

# assay system Aurora B (Homo sapiens, UniProt Q96GD4): give IC50 of C[C@@H](NC(=O)c1ccc2[nH]nc(-c3ccc(OC4CCN(C)CC4)cc3)c2c1)c1cccs1
≤ 5 µM

# assay system Aurora B (Homo sapiens, UniProt Q96GD4): give IC50 of O=C(Nc1ccc2[nH]nc(-c3ccc(N4CCOCC4)cc3)c2c1)C1CCCc2ccccc21 (stereo not drawn)
5 to 50 µM

# assay system Aurora B (Homo sapiens, UniProt Q96GD4): give IC50 of O=C(NC(c1ccccn1)C1CC1)c1ccc2[nH]nc(-c3ccc(OC4CN(C5COC5)C4)cc3)c2c1 (stereo not drawn)
≤ 5 µM

# assay system Aurora B (Homo sapiens, UniProt Q96GD4): give IC50 of O=C(NC(c1ccsc1)C1CC1)c1ccc2[nH]nc(-c3ccc(N4CCOCC4)cc3)c2c1 (stereo not drawn)
≤ 5 µM

# assay system Aurora B (Homo sapiens, UniProt Q96GD4): give IC50 of O=C(Nc1ccc2[nH]nc(-c3ccc(OC4CCN(CCF)CC4)cc3)c2c1)C(c1ccsc1)N1CCCC1 (stereo not drawn)
≤ 5 µM

# assay system Aurora B (Homo sapiens, UniProt Q96GD4): give IC50 of C[C@H]1CCCN1[C@H](C(=O)Nc1ccc2[nH]nc(-c3ccc(N4CCOCC4)cc3)c2c1)c1ccsc1
≤ 5 µM

# assay system Aurora B (Homo sapiens, UniProt Q96GD4): give IC50 of O=C(NC(c1ccccn1)C1CC1)c1ccc2[nH]nc(-c3ccc(OC4CCN(C5COC5)CC4)cc3)c2c1 (stereo not drawn)
≤ 5 µM

# assay system Aurora B (Homo sapiens, UniProt Q96GD4): give IC50 of Cc1ccccc1C(NC(=O)c1ccc2[nH]nc(-c3ccc(OC4CCN(C)CC4)cc3)c2c1)C1CC1 (stereo not drawn)
≤ 5 µM

# assay system Aurora B (Homo sapiens, UniProt Q96GD4): give IC50 of CN1CCC(Oc2ccc(-c3n[nH]c4ccc(C(=O)NC(c5ccccn5)C5CCC5)cc34)cc2)CC1 (stereo not drawn)
≤ 5 µM

# assay system Aurora B (Homo sapiens, UniProt Q96GD4): give IC50 of CN1CCC(Oc2ccc(-c3n[nH]c4ccc(NC(=O)C(c5ccsc5)N5CCC5)cc34)cc2)CC1 (stereo not drawn)
≤ 5 µM

###

Target: human PLK4 (Homo sapiens)
Construct: amino terminal GST fusion of residues 1-391 of human PLK4
Experiment: PLK4 inhibition assay (indirect ELISA)
Details: GST-PLK4 4 nM, 15 μM ATP; read-out: IC50 Ranges PLK4
pIC50: −log10 of the molar value.
TEST READOUT: pIC50

COMPOUND | TEST READOUT | VALUE MEASURED
O=C(Nc1ccc2[nH]nc(-c3ccc4c(c3)OCO4)c2c1)C(c1ccsc1)N1CCCC1 (stereo not shown) | pIC50 | ≥ 5.30
CC[C@@H](NC(=O)c1ccc2[nH]nc(-c3ccc(OC4CCN(C)CC4)cc3)c2c1)c1cccs1 | pIC50 | ≥ 5.30
CN1CCC(Oc2ccc(-c3n[nH]c4ccc(NC(=O)Nc5ccccc5Cl)cc34)cc2)CC1 | pIC50 | ≥ 5.30

Proceeding to the next compound to report its pIC50.
# assay system human PLK4 (Homo sapiens): give pIC50 of CC(C)(O)C1CCN(c2ccc(-c3n[nH]c4ccc(C(=O)NC(c5ccccc5)C5CC5)cc34)cc2)CC1 (stereo not shown)
≥ 5.30

###

Measured IC50, listed per entry for reference.
Biological target: human PLK4 (Homo sapiens, UniProt O00444)
Construct: amino terminal GST fusion of residues 1-391 of human PLK4
Test: PLK4 inhibition assay (indirect ELISA)
Conditions: GST-PLK4 4 nM, 15 μM ATP; read-out: IC50 Ranges PLK4

Example cases with answers are listed next.
COMPOUND | IC50
CN1CCC(Oc2ccc(-c3n[nH]c4ccc(NC(=O)C(c5ccsc5)N5CCCC5)cc34)cc2Cl)CC1 (centres unmarked) | ≤ 5 µM
CN1CCC(Oc2ccc(-c3n[nH]c4ccc(NC(=O)C5c6ccccc6CCN5C)cc34)cc2)CC1 (centres unmarked) | ≤ 5 µM
CN1CCC(Oc2ccc(-c3n[nH]c4ccc(NC(=O)Nc5c(Cl)cccc5Cl)cc34)cc2)CC1 | ≤ 5 µM

Indicate the recorded IC50 value for this compound: COC(C(=O)Nc1ccc2[nH]nc(-c3ccc(OC4CCN(C)CC4)cc3)c2c1)c1ccsc1 (centres unmarked)
≤ 5 µM

Indicate the recorded IC50 value for this compound: CN1CCC(Oc2ccc(-c3n[nH]c4ccc(C(=O)N[C@H](c5sccc5Cl)C5CC5)cc34)cc2)CC1
≤ 5 µM

Indicate the recorded IC50 value for this compound: CN1CCC(Oc2ccc(-c3n[nH]c4ccc(C(=O)NCC(c5ccsc5)N5CCOCC5)cc34)cc2)CC1 (centres unmarked)
≤ 5 µM

Indicate the recorded IC50 value for this compound: COCCN1CCC(Oc2ccc(-c3n[nH]c4ccc(C(=O)N[C@H](c5ccsc5)C5CC5)cc34)cc2)CC1
≤ 5 µM

Indicate the recorded IC50 value for this compound: O=C(Nc1ccc2[nH]nc(-c3ccc(OC4CCN(CCF)CC4)cc3)c2c1)C(c1ccsc1)N1CCCC1 (centres unmarked)
≤ 5 µM

Indicate the recorded IC50 value for this compound: CO[C@@H](C(=O)Nc1ccc2[nH]nc(-c3ccc(OCC4CCN(C)CC4)cc3)c2c1)c1ccccc1
≤ 5 µM

###

Target: human PLK4 (Homo sapiens)
Construct: amino terminal GST fusion of residues 1-391 of human PLK4
Sequence (O00444 1-391): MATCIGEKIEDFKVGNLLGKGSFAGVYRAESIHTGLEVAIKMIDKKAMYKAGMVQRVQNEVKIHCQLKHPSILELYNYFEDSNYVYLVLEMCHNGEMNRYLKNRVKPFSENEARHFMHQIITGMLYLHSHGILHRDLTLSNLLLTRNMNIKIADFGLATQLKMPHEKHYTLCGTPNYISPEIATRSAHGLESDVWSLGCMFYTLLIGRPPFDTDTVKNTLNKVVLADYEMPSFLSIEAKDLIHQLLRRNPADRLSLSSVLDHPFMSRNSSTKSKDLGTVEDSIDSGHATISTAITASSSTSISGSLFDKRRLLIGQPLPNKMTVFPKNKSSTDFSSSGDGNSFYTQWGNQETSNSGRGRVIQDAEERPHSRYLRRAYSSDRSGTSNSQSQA
Assay: PLK4 inhibition assay (indirect ELISA)
Settings: GST-PLK4 4 nM, 15 μM ATP; read-out: IC50 Ranges PLK4
Experimental: Active PLK4 was purified from an E. coli expression system as an amino terminal GST fusion of residues 1-391 of human PLK4. […] PLK4 activity was measured using an indirect ELISA detection system. […] The colourimetric reaction was allowed to continue for 5 minutes, followed by addition of stop solution (0.5 N sulphuric acid), and quantified by detection at 450 nm with either a monochromatic or filter based plate reader (Molecular Devices M5 or Beckman DTX880, respectively). […]
pIC50: −log10 of the molar value.
TEST READOUT: pIC50

Example cases with answers are listed next.
COMPOUND | pIC50
CCN(C(=O)Nc1ccc2[nH]nc(-c3ccc(N4CCOCC4)cc3)c2c1)c1ccccc1 | ≥ 5.30
O=C(Nc1ccc2[nH]nc(-c3ccc(NC4CCC(O)CC4)cc3)c2c1)C(c1ccsc1)N1CCCC1 (centres unmarked) | ≥ 5.30
CN1CCC(Oc2ccc(-c3n[nH]c4ccc(NC(=O)N5CCCc6ccccc65)cc34)cc2)CC1 | ≥ 5.30
CN1CCC(Oc2ccc(-c3n[nH]c4ccc(C(=O)N[C@@H](c5sccc5Cl)C5CC5)cc34)cc2)CC1 | ≥ 5.30
CC(C)(C)OC(=O)N1CCC(Oc2ccc(-c3n[nH]c4ccc(NC(=O)C(c5ccsc5)N5CCCC5)cc34)cc2)CC1 (centres unmarked) | ≥ 5.30

Indicate the recorded pIC50 value for this compound: CN1CCC(Oc2ccc(-c3n[nH]c4ccc(C(=O)NC(c5ccccc5)C5CC5)cc34)cc2Cl)CC1 (centres unmarked)
≥ 5.30

Indicate the recorded pIC50 value for this compound: O=C(N[C@@H](c1ccccn1)C1CC1)c1ccc2[nH]nc(-c3ccc(OC4CCN(C5COC5)CC4)cc3)c2c1
≥ 5.30

Indicate the recorded pIC50 value for this compound: COc1cc(-c2n[nH]c3ccc(NC(=O)C(c4ccsc4)N4CCCC4)cc23)ccc1OC1CCNCC1 (centres unmarked)
≥ 5.30

Indicate the recorded pIC50 value for this compound: O=C(NC(c1ccsc1)C1CCC1)c1ccc2[nH]nc(-c3ccc(N4CCOCC4)cc3)c2c1 (centres unmarked)
≥ 5.30

Indicate the recorded pIC50 value for this compound: O=C(NC(c1ccccc1)C1CC1)c1ccc2[nH]nc(-c3ccc(OCCN4CCOCC4)cc3)c2c1 (centres unmarked)
≥ 5.30

Indicate the recorded pIC50 value for this compound: CN(c1ccc(-c2n[nH]c3ccc(NC(=O)C(c4ccsc4)N4CCCC4)cc23)cc1)C1CCOCC1 (centres unmarked)
≥ 5.30

Indicate the recorded pIC50 value for this compound: CCc1cccc(CC)c1NC(=O)Nc1ccc2[nH]nc(-c3ccc(OC4CCN(C)CC4)cc3)c2c1
≥ 5.30

Indicate the recorded pIC50 value for this compound: CO[C@@H](C(=O)Nc1ccc2[nH]nc(-c3ccc(O[C@@H]4CCN(C)C[C@@H]4F)cc3)c2c1)c1ccccc1 (relative stereo)
≥ 5.30

Indicate the recorded pIC50 value for this compound: O=C(NC(c1ccccn1)C1CC1)c1ccc2[nH]nc(-c3ccc(OC4CN(C5COC5)C4)cc3)c2c1 (centres unmarked)
≥ 5.30
